- assayDetails: Oral pharmacokinetics of Apn, Apn7G and ApnPs in SD rats
- Assay type: in vivo, Sprague Dawley (SD) rats
- settings: male, Sprague Dawley, 185.02 umol/kg; rat plasma, oral 185.02 µmol/kg, 0 to 10 h; read-out: aglyconic Apn AUC0–t
valueKind: AUC(0-t) (µM·h)
Return type: number; implicit unit µM·h.

Reported AUC(0-t) of O=c1cc(-c2ccc(O)cc2)oc2cc(O)cc(O)c12 [Apn, 4′,5,7-trihydroxyflavone] : 0.113

---

Recorded retained relative content after 240 min of incubation by entry
- assayDetails: Stability in simulated gastric fluid (SGF) and simulated intestinal fluid (SIF)
- Type: in vitro ADME
- settings: SGF with pepsin and SIF with pancreatin pH 6.8, 125 mg/L, 37 °C
- Description: For the SGF solution, 5 g of pepsin was dissolved in 1 L of deionized water with the addition of hydrochloric acid to achieve a pH of 1.8. The SIF solution consisted of 6.8 g of monopotassium phosphate and 10 g of pancreatin dissolved in 1 L of deionized water, maintaining a pH of 6.8.
Return type: number; implicit unit %.

>>> experimentalvalue("O=c1cc(-c2ccc(O)c(O)c2)oc2cc(OP(=O)(O)O)cc(O)c12 [Lut7P, luteolin 7-O-phosphate]")
73

Consider the record given below.
Reported retained relative content after 240 min of incubation of O=c1cc(-c2ccc(O)cc2)oc2cc(OP(=O)(O)O)cc(O)c12 [Apn7P, apigenin 7-O-phosphate] : 76

Data credit: paper PMC11727040
